Target: human TGR5 (Homo sapiens, UniProt Q8TDU6)
Construct: expressed in transfected cells; host or cells: HEK293
Sequence (Q8TDU6 1-330): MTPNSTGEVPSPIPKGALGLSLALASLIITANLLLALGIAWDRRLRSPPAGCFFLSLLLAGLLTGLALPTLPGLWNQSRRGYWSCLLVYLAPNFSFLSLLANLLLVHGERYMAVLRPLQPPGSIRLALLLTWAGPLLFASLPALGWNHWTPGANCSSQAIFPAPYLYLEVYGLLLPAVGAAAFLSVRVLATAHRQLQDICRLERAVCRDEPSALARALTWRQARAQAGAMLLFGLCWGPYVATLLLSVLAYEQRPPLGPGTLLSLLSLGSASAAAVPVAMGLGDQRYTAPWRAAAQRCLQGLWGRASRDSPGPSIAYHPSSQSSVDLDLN
Assay: Cell-based TGR5 assay (cAMP generation, HTRF)
Details: HEK293 cells stably transfected with human TGR5; cAMP by HTRF; 30 minutes at 37° C.; read-out: pEC50 Human TGR5 (converted)

| molecule | EC50 |
| --- | --- |
| CCNC(=O)[C@H](N)CCCCNS(=O)(=O)c1ccc(Cl)c(COC2(c3cnccc3-c3ccccc3OC3CC3)CC2)c1 | < 0.1 µM |
| CS(=O)(=O)CCCN(CCCCSc1ccc(Cl)c(COC2(c3cnccc3-c3ccccc3OC3CC3)CC2)c1)C(=O)[C@@H](O)[C@@H](O)[C@H](O)[C@@H](O)CO | < 0.1 µM |
| O=C(NC[C@H](O)[C@@H](O)[C@H](O)[C@H](O)CO)NC1CC2(C1)CN(S(=O)(=O)c1ccc(Cl)c(COC3(c4cnccc4-c4ccccc4OC4CC4)CC3)c1)C2 | 0.126 to 1 µM |
| CCN(C[C@H](O)[C@@H](O)[C@H](O)[C@H](O)CO)C(=O)CCCC(C)c1ccc(C)c(COC2(c3cnccc3-c3ccccc3OC3CC3)CC2)c1 (stereo partly drawn) | < 0.1 µM |
| O=C(CCCSc1ccc(Cl)c(COC2(c3cnccc3-c3ccccc3OC3CC3)CC2)c1)N(CCCO)C[C@H](O)[C@@H](O)[C@H](O)[C@H](O)CO | < 0.1 µM |
| Cc1ccc(CCCCC(=O)N(C)C[C@H](O)[C@@H](O)[C@H](O)[C@H](O)CO)cc1CNC1(c2cnccc2-c2ccccc2OC2CC2)CC1 (stereo in doubt) | 0.126 to 1 µM |
| O=C(/C=C/CC1CN(S(=O)(=O)c2ccc(Cl)c(COC3(c4cnccc4-c4ccccc4OC4CC4)CC3)c2)C1)NC[C@H](O)[C@@H](O)[C@H](O)[C@H](O)CO | < 0.1 µM |
| FC(F)(F)c1ccc(Cl)cc1COC1(c2cnccc2-c2ccccc2OC2CC2)CC1 | 0.126 to 1 µM |
| O=C(O)CCCCc1cc(Cl)c(COC2(c3cnccc3-c3ccccc3OC3CC3)CC2)cc1Cl | < 0.1 µM |
| CC(CCCCN(CCOCCO)C(=O)NC[C@H](O)[C@@H](O)[C@H](O)[C@H](O)CO)c1ccc(Cl)c(CNC2(c3cnccc3-c3ccccc3OC3CC3)CC2)c1 (stereo partly drawn) | < 0.1 µM |
| O=C(CCCSc1ccc(Cl)c(COC2(c3cnccc3-c3ccccc3OC3CC3)CC2)c1)N(CCCCO)C[C@H](O)[C@@H](O)[C@H](O)[C@H](O)CO | 0.126 to 1 µM |
| CCc1ccccc1-c1ccncc1C1(NCc2cc(Cl)ccc2Cl)CC1 | 0.126 to 1 µM |

* * *

The entries below come with measured EC50 values attached.
biological target: human TGR5 (Homo sapiens, UniProt Q8TDU6); construct: expressed in transfected cells; host or cells: HEK293; assay: Cell-based TGR5 assay (cAMP generation, HTRF); details: HEK293 cells stably transfected with human TGR5; cAMP by HTRF; 30 minutes at 37° C.; read-out: pEC50 Human TGR5 (converted)

| compound | EC50 |
| --- | --- |
| O=C(NC[C@H](O)[C@@H](O)[C@H](O)[C@H](O)CO)C1CCN(S(=O)(=O)c2ccc(Cl)c(COC3(c4cnccc4-c4ccccc4OC4CC4)CC3)c2)CC1 | < 0.1 µM |
| O=C(CCN(CCC(=O)NC[C@H](O)[C@@H](O)[C@H](O)[C@H](O)CO)C(=O)CCCCc1cc(Cl)c(CNC2(c3cnccc3-c3ccccc3OC3CC3)CC2)cc1Cl)NC[C@H](O)[C@@H](O)[C@H](O)[C@H](O)CO (stereo in doubt) | 1.26 to 10 µM |
| O=C([C@@H](O)[C@@H](O)[C@H](O)[C@@H](O)CO)N(CCCCO)CCCCCSc1ccc(Cl)c(CNC2(c3cnccc3-c3ccccc3OC3CC3)CC2)c1 | < 0.1 µM |
| Cc1ccc(SCCCN(CCOCCO)C(=O)[C@@H](O)[C@@H](O)[C@H](O)[C@@H](O)CO)cc1COC1(c2cnccc2-c2ccccc2OC2CC2)CC1 | 1.26 to 10 µM |
| Cc1ccc(C(C)CCCC(=O)N(CCC(N)=O)C[C@H](O)[C@@H](O)[C@H](O)[C@H](O)CO)cc1CNC1(c2cnccc2-c2ccccc2OC2CC2)CC1 (stereo partly shown) | 0.126 to 1 µM |
| Cc1ccc([C@@H](C)CCCC(=O)N(CCS(C)(=O)=O)C[C@H](O)[C@@H](O)[C@H](O)[C@H](O)CO)cc1CNC1(c2cnccc2-c2ccccc2OC2CC2)CC1 (single isomer, unassigned) | < 0.1 µM |
| O=C(NCCCCSc1ccc(Cl)c(CNC2(c3cnccc3-c3ccccc3OC3CC3)CC2)c1)NC[C@H](O)[C@@H](O)[C@H](O)[C@H](O)CO | < 0.1 µM |
| Cc1cc(COC2(c3cnccc3-c3ccccc3OC3CC3)CC2)c(Cl)cc1CCCCNC(=O)NC[C@H](O)[C@@H](O)[C@H](O)[C@H](O)CO | < 0.1 µM |
| CNS(=O)(=O)CCN(C[C@H](O)[C@@H](O)[C@H](O)[C@H](O)CO)C(=O)CCCSc1ccc(Cl)c(COC2(c3cnccc3-c3ccccc3OC3CC3)CC2)c1 | 0.126 to 1 µM |
| O=C([C@@H](O)[C@@H](O)[C@H](O)[C@@H](O)CO)N(CCCO)CCCCc1cc(Cl)c(COC2(c3cnccc3-c3ccccc3OC3CC3)CC2)cc1Cl | < 0.1 µM |

* * *

The entries below come with measured EC50 values attached.
biological target: human TGR5 (Homo sapiens, UniProt Q8TDU6); construct: expressed in transfected cells; host or cells: HEK293; assay: Cell-based TGR5 assay (cAMP generation, HTRF); conditions: HEK293 cells stably transfected with human TGR5; cAMP by HTRF; 30 minutes at 37° C.; read-out: pEC50 Human TGR5 (converted)

| molecule | target_system | EC50 |
| --- | --- | --- |
| C=C(CCCNC(=O)[C@@H](O)[C@@H](O)[C@H](O)[C@@H](O)CO)c1ccc(Cl)c(CNC2(c3cnccc3-c3ccccc3OC3CC3)CC2)c1 | human TGR5 (Homo sapiens, UniProt Q8TDU6) | < 100 nM |
| Cc1cc(COC2(c3cnccc3-c3ccccc3OC3CC3)CC2)c(Cl)cc1CCCCNC(=O)N[C@@H](C)C(=O)N[C@@H](C)C(=O)N[C@@H](C)C(=O)O | human TGR5 (Homo sapiens, UniProt Q8TDU6) | < 100 nM |
| CC(CCCC(=O)NCCN1CCN(C(=O)NC[C@H](O)[C@@H](O)[C@H](O)[C@H](O)CO)CC1)c1ccc(Cl)c(CNC2(c3cnccc3-c3ccccc3OC3CC3)CC2)c1 (stereo partly drawn) | human TGR5 (Homo sapiens, UniProt Q8TDU6) | < 100 nM |

* * *

Molecular target: human TGR5 (Homo sapiens, UniProt Q8TDU6)
Construct: expressed in transfected cells; host or cells: HEK293
Sequence (Q8TDU6 1-330): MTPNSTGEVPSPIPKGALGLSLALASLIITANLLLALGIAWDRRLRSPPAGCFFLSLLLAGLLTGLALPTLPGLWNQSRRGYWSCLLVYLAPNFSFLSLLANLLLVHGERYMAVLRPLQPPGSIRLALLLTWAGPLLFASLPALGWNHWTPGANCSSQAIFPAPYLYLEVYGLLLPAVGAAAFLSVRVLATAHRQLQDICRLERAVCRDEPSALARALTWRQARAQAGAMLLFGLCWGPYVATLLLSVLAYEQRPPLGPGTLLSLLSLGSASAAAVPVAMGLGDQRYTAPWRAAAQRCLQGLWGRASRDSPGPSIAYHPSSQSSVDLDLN
Assay: Cell-based TGR5 assay (cAMP generation, HTRF)
Conditions: HEK293 cells stably transfected with human TGR5; cAMP by HTRF; 30 minutes at 37° C.; read-out: pEC50 Human TGR5 (converted)
observed_property: EC50

| compound | val |
| --- | --- |
| CCN(C[C@H](O)[C@@H](O)[C@H](O)[C@H](O)CO)C(=O)CCCCc1cc(Cl)c(COC2(c3cnccc3-c3ccccc3OC3CC3)CC2)cc1Cl [Compound I-108] | < 100 nM |
| CN(CCOCCNC(=O)N[C@@H](CO)[C@@H](O)[C@H](O)[C@H](O)CO)S(=O)(=O)c1ccc(Cl)c(COC2(c3cnccc3-c3ccccc3OC3CC3)CC2)c1 (stereo in doubt) [Compound I-406] | < 100 nM |
| O=C([C@@H](O)[C@@H](O)[C@H](O)[C@@H](O)CO)N(CCCCc1cc(Cl)c(COC2(c3cnccc3-c3ccccc3OC3CC3)CC2)cc1Cl)C1CCOCC1 [Compound I-216] | 126 to 1000 nM |
| Cc1ccc([C@H](C)CCCC(=O)N(CCS(C)(=O)=O)C[C@H](O)[C@@H](O)[C@H](O)[C@H](O)CO)cc1CNC1(c2cnccc2-c2ccccc2OC2CC2)CC1 (single isomer, unassigned) [Compound I-368] | < 100 nM |
| CC(C)N(CCCCNC(=O)N[C@@H](CO)[C@@H](O)[C@H](O)[C@H](O)CO)S(=O)(=O)c1ccc(Cl)c(CNC2(c3cnccc3-c3ccccc3OC3CC3)CC2)c1 [Compound I-744] | < 100 nM |
| CC(CCCCN(C)C(=O)[C@@H](O)[C@@H](O)[C@H](O)[C@@H](O)CO)c1ccc(Cl)c(CNC2(c3cnccc3-c3ccccc3OC3CC3)CC2)c1 (stereo partly shown) [Compound I-281] | < 100 nM |
| O=C(NC[C@H](O)[C@@H](O)[C@H](O)[C@H](O)CO)C12CCC(NS(=O)(=O)c3ccc(Cl)c(COC4(c5cnccc5-c5ccccc5OC5CC5)CC4)c3)(CC1)CC2 [Compound I-445] | 126 to 1000 nM |
| CCN(CCCCNC(=O)N[C@@H](CO)[C@@H](O)[C@H](O)[C@H](O)CO)S(=O)(=O)c1ccc(Cl)c(COC2(c3cnccc3-c3ccccc3OC3CC3)CC2)c1 [Compound I-465] | < 100 nM |
| CS(=O)(=O)NCCCCN(CCCCSc1ccc(Cl)c(CNC2(c3cnccc3-c3ccccc3OC3CC3)CC2)c1)C(=O)[C@@H](O)[C@@H](O)[C@H](O)[C@@H](O)CO [Compound I-582] | < 100 nM |
| Cc1ccc(C(C)CCCC(=O)N(CCCO)C[C@H](O)[C@@H](O)[C@H](O)[C@H](O)CO)cc1CNC1(c2cnccc2-c2ccccc2OC2CC2)CC1 (stereo partly shown) [Compound I-358] | 126 to 1000 nM |
